assay-target: HLA B*1501 (Homo sapiens, UniProt P01889, A329T/A93T/A95T/C349S/D201E/D98Y/E187L/E204Q/E69M/E70A/K202T/N87E/Q94N/R155S/R180W/S121R/S35A/S48A/V306I/V36M/Y140S/Y91S)
test-description: biochemical
Type: binding
endpoint: Normalized average relative binding affinity (ARB), HLA B*1501
Give bare numbers.

Could you tell me Normalized average relative binding affinity (ARB), HLA B*1501 for each of these sequences? They are listed below.
1. XSXXXXXXX [3064.0036]
2. XXPXXXXXX [3064.0053]
3. HXXXXXXXX [3064.0007]
4. XXKXXXXXX [3064.0049]
5. XXSXXXXXX [3064.0056]
6. AXXXXXXXX [3064.0001]

0.59
0.32
0.59
0.53
0.41
0.31

Could you tell me Normalized average relative binding affinity (ARB), HLA B*1501 for each of these sequences? They are listed below.
1. YXXXXXXXX [3064.0020]
2. XXFXXXXXX [3064.0045]

[0.33, 0.83]

====

assay-target: HLA A*3201 (Homo sapiens, UniProt P04439, A270S/D101S/D185E/E176V/E277Q/F133L/G103R/G107R/G231S/H175R/I121M/I218V/I322F/K168Q/L105A/L300P/L318F/M331R/P208A/P217A/Q94H/R106L/R138Q/S129P/T104I/T323A/T345S/V100E/V321M/V358M)
test-description: biochemical
Format: binding
Cut-off 0.3 on Normalized average relative binding affinity(ARB), inclusive. At or above means true (1); below means false (0).

See these solved cases before continuing.
XXXGXXXXX [3064.0066]
true (1)
XXXXXXXPX [3064.0153]
true (1)

Consider now this further sequence.
Given XXXXXXXEX [3064.0144] , state whether its Normalized average relative binding affinity(ARB) is at least 0.3. false (0)

====

assay-target: HLA B*5802 (Homo sapiens, UniProt P01889, A329T/C349S/D201E/D98Y/E176V/E187L/E204Q/E69T/G107R/I218V/I90N/K202T/L105A/N104I/N87E/Q89R/Q94S/R106L/R155S/R180L/R86G/S101N/S121W/S35A/S48A/V127L/V306I/V36M/Y140S/Y91M)
Assay type: binding
endpoint: Normalized average relative binding affinity (ARB), HLA B*5802
Numbers only.

XTXXXXXXX [3064.0037]
0.79
QXXXXXXXX [3064.0014]
0.033
XFXXXXXXX [3064.0025]
0.030
XNXXXXXXX [3064.0032]
0.20
LXXXXXXXX [3064.0010]
0.044
DXXXXXXXX [3064.0003]
0.068

Could you tell me Normalized average relative binding affinity (ARB), HLA B*5802 for each of these sequences? They are listed below.
1. XXYXXXXXX [3064.0060]
2. GXXXXXXXX [3064.0006]
3. HXXXXXXXX [3064.0007]
4. MXXXXXXXX [3064.0011]

1. 0.72
2. 0.14
3. 0.026
4. 0.21

====

Exercise: for every item that follows, state its recorded Normalized average relative binding affinity(ARB).
assay-target: HLA B*5101 (Homo sapiens, UniProt P01889, A329T/A93T/A95T/C349S/D138N/D201E/D98Y/E187L/E204Q/E69T/G107R/I218V/K202T/L105A/L119W/N104I/Q94N/R106L/R155S/R180L/S101N/S121T/S35A/S48A/V306I/V36M/Y195H/Y91F)
Type: binding
One number for each entry.

Previously resolved entries follow.
XXXXXKXXX [3064.0109]
0.54
XXXWXXXXX [3064.0079]
0.82
XXXXAXXXX [3064.0081]
1.0
XXXXXXGXX [3064.0126]
0.33
XXXSXXXXX [3064.0076]
0.92

Could you tell me Normalized average relative binding affinity(ARB) for each of these sequences? They are listed below.
1. XXXXXMXXX [3064.0111]
2. XXXXTXXXX [3064.0097]

0.52
0.51

I have this sequence here, XXXXNXXXX [3064.0092] , and I need its recorded Normalized average relative binding affinity(ARB). 0.40

====

assay-target: HLA B*1503 (Homo sapiens, UniProt P01889, A329T/A93T/A95T/C349S/D201E/D98Y/E187L/E204Q/K202T/N87E/Q94N/R155S/R180L/S121R/S35A/V306I/V36M/Y140S/Y91S)
test-description: biochemical
Assay type: binding
# note: exactly 0.2 is not below, so it is f; use t for Normalized average relative binding affinity(ARB) strictly under it

See these solved cases before continuing.
XXXXCXXXX [3064.0082]
f
XXXXXNXXX [3064.0112]
t
XXXXXXXSX [3064.0156]
f

Does the reported Normalized average relative binding affinity(ARB) of the following sequence sit strictly below 0.2? XXXRXXXXX [3064.0075] f

Does the reported Normalized average relative binding affinity(ARB) of the following sequence sit strictly below 0.2? XXXXXCXXX [3064.0102] t

Does the reported Normalized average relative binding affinity(ARB) of the following sequence sit strictly below 0.2? XXXXLXXXX [3064.0090] t

====

assay-target: H-2 K^k (Mus musculus, UniProt P04223)
Sequence (P01887 21-119): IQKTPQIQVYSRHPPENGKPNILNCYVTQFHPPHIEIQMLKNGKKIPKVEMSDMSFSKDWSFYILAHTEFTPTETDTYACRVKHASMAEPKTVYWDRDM
Sequence (P04223 22-369): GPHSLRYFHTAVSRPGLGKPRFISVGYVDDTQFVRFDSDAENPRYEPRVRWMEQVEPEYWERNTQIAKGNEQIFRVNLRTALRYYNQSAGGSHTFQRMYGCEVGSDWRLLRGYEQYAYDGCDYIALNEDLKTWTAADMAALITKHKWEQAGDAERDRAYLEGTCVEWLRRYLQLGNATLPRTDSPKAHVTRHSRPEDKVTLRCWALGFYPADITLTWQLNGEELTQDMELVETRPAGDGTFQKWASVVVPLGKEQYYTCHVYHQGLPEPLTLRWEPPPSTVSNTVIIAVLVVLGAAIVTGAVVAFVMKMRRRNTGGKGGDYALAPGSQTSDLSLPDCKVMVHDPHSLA
Format: binding
# note: exactly 0.4 is not below, so it is criterion not met; use criterion met for Normalized average relative binding affinity (ARB), H-2 Kk strictly under it

See these solved cases before continuing.
XXDXXXXXX [3064.0043]
criterion met
XXWXXXXXX [3064.0059]
criterion not met
XQXXXXXXX [3064.0034]
criterion met

Consider now this further sequence.
Does the reported Normalized average relative binding affinity (ARB), H-2 Kk of the following sequence sit strictly below 0.4? SXXXXXXXX [3064.0016] criterion not met

====

Exercise: for every item that follows, state its recorded IC50.
assay-target: HLA B*1503 (Homo sapiens, UniProt P01889, A329T/A93T/A95T/C349S/D201E/D98Y/E187L/E204Q/K202T/N87E/Q94N/R155S/R180L/S121R/S35A/V306I/V36M/Y140S/Y91S)
test-description: biochemical
Where a SMILES comes first, the peptide text is derived from it.
Give bare numbers, in nM.

Previously resolved entries follow.
C[C@H](NC(=O)[C@H](Cc1c[nH]c2ccccc12)NC(=O)[C@H](CO)NC(=O)CNC(=O)[C@@H](N)CCCNC(=N)N)C(=O)N[C@H](C(=O)N[C@@H](CO)C(=O)N[C@@H](CO)C(=O)N[C@@H](Cc1ccccc1)C(=O)O)[C@@H](C)O [3102.1323] (H-RGSWATSSF-OH)
11
CC[C@H](C)[C@H](NC(=O)[C@@H](NC(=O)[C@H](CC(C)C)NC(=O)[C@H](CCSC)NC(=O)[C@H](CCCCN)NC(=O)[C@@H](N)CC(N)=O)[C@@H](C)O)C(=O)N[C@H](C(=O)N[C@@H](CO)C(=O)N[C@@H](Cc1ccccc1)C(=O)O)[C@@H](C)O [3102.1234] (H-NKMLTITSF-OH)
1.4

Next compound, IC50 to be filled in.
I have this compound here, CC[C@H](C)[C@H](N)C(=O)N[C@@H](CC(C)C)C(=O)N[C@@H](Cc1c[nH]cn1)C(=O)N[C@@H](Cc1c[nH]cn1)C(=O)N[C@@H](Cc1c[nH]cn1)C(=O)N[C@@H](CCCNC(=N)N)C(=O)N[C@@H](CC(N)=O)C(=O)N[C@H](C(=O)N[C@@H](Cc1ccccc1)C(=O)O)C(C)C [3102.1250] (H-ILHHHRNVF-OH) , and I need its recorded IC50. 1.3

====

assay-target: HLA B*5301 (Homo sapiens, UniProt P01889, A329T/A93T/A95T/C349S/D201E/D98Y/E176V/E187L/E204Q/E69T/G107R/I218V/K202T/L105A/L119I/N104I/Q94N/R106L/R155S/R180L/S101N/S121R/S35A/S48A/T118I/V127L/V306I/V36M/Y140S/Y91F)
Format: binding
# note: exactly 0.08 is not below, so it is Condition not met; use Condition met for Normalized average relative binding affinity (ARB), HLA B*5301 strictly under it

See these solved cases before continuing.
MXXXXXXXX [3064.0011]
Condition not met
XRXXXXXXX [3064.0035]
Condition met
NXXXXXXXX [3064.0012]
Condition met
WXXXXXXXX [3064.0019]
Condition not met
XSXXXXXXX [3064.0036]
Condition met

Does the reported Normalized average relative binding affinity (ARB), HLA B*5301 of the following sequence sit strictly below 0.08? XMXXXXXXX [3064.0031] Condition met

Does the reported Normalized average relative binding affinity (ARB), HLA B*5301 of the following sequence sit strictly below 0.08? DXXXXXXXX [3064.0003] Condition met
